MEASURED ON: CD71 on SK-BR-3 cells (human, UniProt P02786 1-760)
Sequence (P02786 whole entry): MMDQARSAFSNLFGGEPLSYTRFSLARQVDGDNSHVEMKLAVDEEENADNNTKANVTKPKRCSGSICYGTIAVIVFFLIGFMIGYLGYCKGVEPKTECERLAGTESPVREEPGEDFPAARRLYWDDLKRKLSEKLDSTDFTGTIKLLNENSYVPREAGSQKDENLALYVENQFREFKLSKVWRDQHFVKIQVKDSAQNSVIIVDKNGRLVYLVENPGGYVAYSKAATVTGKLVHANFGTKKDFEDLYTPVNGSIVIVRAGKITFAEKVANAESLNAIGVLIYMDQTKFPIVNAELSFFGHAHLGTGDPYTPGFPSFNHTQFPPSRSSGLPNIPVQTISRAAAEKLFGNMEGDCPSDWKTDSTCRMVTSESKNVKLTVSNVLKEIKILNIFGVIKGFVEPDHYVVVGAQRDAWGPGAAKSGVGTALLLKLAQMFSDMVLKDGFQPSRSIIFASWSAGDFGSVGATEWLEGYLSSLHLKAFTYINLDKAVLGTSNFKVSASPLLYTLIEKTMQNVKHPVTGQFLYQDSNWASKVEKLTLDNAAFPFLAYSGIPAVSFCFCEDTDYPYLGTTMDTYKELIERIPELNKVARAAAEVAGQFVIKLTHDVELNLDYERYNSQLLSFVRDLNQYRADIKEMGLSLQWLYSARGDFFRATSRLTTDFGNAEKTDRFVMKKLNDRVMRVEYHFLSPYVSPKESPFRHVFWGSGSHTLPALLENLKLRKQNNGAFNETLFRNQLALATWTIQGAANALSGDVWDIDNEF
ASSAY INFO: cell-based or functional assay
MEASURED ATTRIBUTE: IC50, SKBR-3 viability, MMAF conjugate, second unlabelled column (+/- human transferrin) (nM)

BINDER: SEQ ID NO 226 (designed binder, FN3 domain) MLPAPKNLVVSRVTEDSARLSWTAPDAAFDSFHIIYEEVLTEGEAIYLRVPGSERSYDLTGLKPGTEYGVTIKGVKGGAYSIPLIATFTT
MEASUREMENT: 8.32
--
BINDER: SEQ ID NO 190 (designed binder, FN3 domain) MLPAPKNLVVSRVTEDSARLSWTAPDAAFDSFFIGYPEYPATGEAITLFVPGSERSYDLTGLKPGTEYNVVIQGVKGGRPSNPLVVAFTT
MEASUREMENT: 12
--
BINDER: SEQ ID NO 307 (designed binder, FN3 domain) MLPAPKNLVVSRVTEDSARLSWTAPDAAFDSFPITYSEPAHYGEAIVLTVPGSERSYDLTGLKPGTEYHVGIMGVKGGVFSSPLSAIFTT
MEASUREMENT: 30.8
--
BINDER: SEQ ID NO 197 (designed binder, FN3 domain) MLPAPKNLVVSRVTEDSARLSWTAPDAAFDSFKIDYLEINDNGEAIVLTVPGSERSYDLTGLKPGTEYPVYIWGVKGGYPSSPLSAIFTT
MEASUREMENT: 0.468
--
BINDER: SEQ ID NO 238 (designed binder, FN3 domain) MLPAPKNLVVSRVTEDSARLSWTAPDAAFDSFKIFYQEFGGEAIVLTVPGSERSYDLTGLKPGTEYWVDIYGVKGGYTSSPLSAIFTT
MEASUREMENT: 7.23
--
BINDER: SEQ ID NO 92 (designed binder, FN3 domain) MLPAPKNLVVSRVTEDSARLSWTAPDAAFDSFLIRYWEWYVLGEAIVLTVPGSERSYDLTGLKPGTEYYVEISGVKGGWQSWPLSAIFTT
MEASUREMENT: 1.06
--
BINDER: SEQ ID NO 136 (designed binder, FN3 domain) MLPAPKNLVVSRVTEDSARLSWTAPDAAFDSFFIYYIESYPAGEAIVLTVPGSERSYDLTGLKPGTEYWMGIDGVKGGRWSTPLSAIFTT
MEASUREMENT: 0.503
--
BINDER: SEQ ID NO 194 (designed binder, FN3 domain) MLPAPKNLVVSRVTEDSARLSWTAPDAAFDSFEIDYDELAIYGEAIVLTVPGSERSYDLTGLKPGTEYRVFIYGVKGGWTSWPLSTIFTT
MEASUREMENT: 5.09
--
BINDER: SEQ ID NO 168 (designed binder, FN3 domain) MLPAPKNLVVSRVTEDSARLSWTTPDAAFDSFFIGYLEPYPPGEAIVLTVPGSERSYDLTGLKPGTEYVVSIQGVKGGKPSDPLSAIFTT
MEASUREMENT: 7.2
--
BINDER: SEQ ID NO 252 (designed binder, FN3 domain) MLPAPKNLVVSRVTEDSARLSWTAPDAAFDSFDIGYTEYGGYGEAIVLTVPGSERSYDLTGLKPGTEYWVLIQGVKGGGSSVPLSAIFTT
MEASUREMENT: 7.74
--
BINDER: SEQ ID NO 217 (designed binder, FN3 domain) MLPAPKNLVVSRVTEDSARLSWTAPDAAFDSFIIEYWEWYFAGEAIVLTVPGSERSYDLTGLKPGTEYTVWITGVKGGTWSEPLSAIFTT
MEASUREMENT: 2.46
--
BINDER: SEQ ID NO 95 (designed binder, FN3 domain) MLPAPKNLVVSRVTEDSARLSWTAPDAAFDSFRISYYEWYDLGEAIVLTVPGSERSYDLTGLKPGTEYWVDIAGVKGGYYSYPLSAIFTT
MEASUREMENT: 12.7
--
BINDER: SEQ ID NO 222 (designed binder, FN3 domain) MLPAPKNLVVSRVTEDSARLSWTAPDAAFDSFYIEYFEWTGSGEAIVLTVPGSERSYDLTGLKPGTEYNVAIYGVKGGAVSYPLSAIFTT
MEASUREMENT: 28.2
--
BINDER: SEQ ID NO 164 (designed binder, FN3 domain) MLPAPKNLVVSRVTEDSARLSWTAPDAAFDSFLIPYAETSPSGEAIVLTVPGSERSYDLTGLKPGTEYSVLIHGVKGGHLSDPLSAIFTT
MEASUREMENT: 55.8
--
BINDER: SEQ ID NO 212 (designed binder, FN3 domain) MLPAPKNLVVSRVTEDSARLSWTAPDAAFDSFIIEYWEQIGVGEAIVLTVPGSERSYDLTGLKPGTEYWVGIYGVKGGLLSSPLSAIFTT
MEASUREMENT: 6.69
